TGT: T1, sRAGE (V-C1-C2) lot LP08062 (human, UniProt Q15109 23-342)
T1 construct: extracellular domain; also called Human RAGE; LP08062 (Rage)
EXPERIMENT_NOTES: SPR (Biacore), mAb captured on anti-mouse Fc, sRAGE 15 nM, 1:1 Langmuir
PARAMETER: kon

Task: Param item = 140 RAGE-1 (antibody, V domains shown, Hybridoma monoclonal antibody, captured on anti-mouse Fc in Biacore; also called Protein 140 RAGE-1) VH: QVQLQQPGAELVKPGASVRLSCKASGYTFTSYWMHWVKQRPGQGLEWIGEINPSNGRTNYNEKFKSKATLTVDKSSSTAYMQLSSLTSEDSAVYYCARDGLGYRPIAMDYWGQGTSVTVSS VL: QIVLTQSPAIMSASPGEKVTISCSASSSVSYMYWYQQKPGSSPKPWIYRTSNLASGVPARFSGSGSGTSYSLTISSMEAEDAATYYCQQYHSYPPMYTFGGGTKLEIK ; retrieve measured kon.
Result: 5.19e+06 M⁻¹ s⁻¹
